Entries and their protein stability index
# Test system: Saccharomyces cerevisiae
# Procedure Text: protein stability index of tFT-peptide fusion (C-terminal peptide) (PSI (0-1 scale)); higher = more stable (slower turnover)
# Recorded Conditions: genetic background: wild type; temperature: 30 C
Measured Endpoint: protein stability index

{"Chain": "PFFRAPTRPSVF", "Measured Endpoint": "protein stability index", "Result": 0.716}
{"Chain": "PDGGFSSVVSLR", "Measured Endpoint": "protein stability index", "Result": 0.686}
{"Chain": "SVLVLPVLFLED", "Measured Endpoint": "protein stability index", "Result": 0.688}
{"Chain": "PPPRLPPPPPPP", "Measured Endpoint": "protein stability index", "Result": 0.679}
{"Chain": "KKEKSQTKKQNI", "Measured Endpoint": "protein stability index", "Result": 0.684}
{"Chain": "PSLPPPSPSTAP", "Measured Endpoint": "protein stability index", "Result": 0.713}
{"Chain": "RPAFSPDVSPPS", "Measured Endpoint": "protein stability index", "Result": 0.716}
{"Chain": "RKEVKAWKTTDI", "Measured Endpoint": "protein stability index", "Result": 0.694}
{"Chain": "YFGGMGARGRER", "Measured Endpoint": "protein stability index", "Result": 0.687}
{"Chain": "EETRRKKRTGKK", "Measured Endpoint": "protein stability index", "Result": 0.707}
{"Chain": "SDGVSLRSFCWL", "Measured Endpoint": "protein stability index", "Result": 0.697}
{"Chain": "WVNGFCKKGSGH", "Measured Endpoint": "protein stability index", "Result": 0.713}

* * *

# Tested on: Saccharomyces cerevisiae
# Procedure Text: protein stability index of tFT-peptide fusion (C-terminal peptide) (PSI (0-1 scale)); higher = more stable (slower turnover)
# Recorded Conditions: genetic background: wild type; temperature: 30 C
Measured Endpoint: protein stability index

{"Chain": "HRRCPILFKMAT", "Result": 0.674}
{"Chain": "PPPKRTPTPQCP", "Result": 0.702}
{"Chain": "QRGGVGWILGGV", "Result": 0.675}
{"Chain": "YNVRNVSVHQLG", "Result": 0.644}
{"Chain": "NDVGGYFYVCSE", "Result": 0.578}
{"Chain": "RALGVPPLSHLP", "Result": 0.656}
{"Chain": "IVSFRLDLSLAV", "Result": 0.534}
{"Chain": "FYGFHPLALPRP", "Result": 0.725}
{"Chain": "SGRGQQEENRRL", "Result": 0.7}
{"Chain": "VRQSQIKHVVVQ", "Result": 0.627}
{"Chain": "VNIHVCSYGIFA", "Result": 0.507}
{"Chain": "AHSSPMGYLPPF", "Result": 0.693}
{"Chain": "VNKNKKNVEYIK", "Result": 0.657}
{"Chain": "GGGAEGGVRGGG", "Result": 0.664}
{"Chain": "QKKKKNNKRQKQ", "Result": 0.588}
{"Chain": "DRPWAGGGLGVC", "Result": 0.621}

* * *

# Test system: Saccharomyces cerevisiae;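 also: PSI is a weighted mean of sequencing reads over stability bins, variants kept only with over 10 reads, mCherry proximal and sfGFP distal, peptide attached via GGGS linker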
# Procedure Text: protein stability index of tFT-peptide fusion (C-terminal peptide) (PSI (0-1 scale)); higher = more stable (slower turnover)
# Recorded Conditions: genetic background: wild type; temperature: 30 C
Label satisfied when protein stability index is at or above 0.7; anything below gets not satisfied.

{"Chain": "GGVGGLGTLCGG", "Group": "not satisfied"}
{"Chain": "VACKGCVVACRV", "Group": "not satisfied"}
{"Chain": "GSRRSWWVLCLG", "Group": "not satisfied"}
{"Chain": "NLSYFFFSVLFF", "Group": "not satisfied"}
{"Chain": "GLRSDIGQVTHP", "Group": "not satisfied"}
{"Chain": "VCSLSCVGIWYW", "Group": "not satisfied"}
{"Chain": "ALRVAVIANMRV", "Group": "not satisfied"}
{"Chain": "RKKKKKKENKRR", "Group": "satisfied"}
{"Chain": "RIEGTLTARTAF", "Group": "not satisfied"}
{"Chain": "GGAGLGSRSSAL", "Group": "satisfied"}
{"Chain": "VLSLLPSLLPPF", "Group": "satisfied"}
{"Chain": "SLVGFLPLWPSS", "Group": "not satisfied"}
{"Chain": "RTTHPSPPTLTV", "Group": "not satisfied"}
{"Chain": "GGVGGFGGAGLG", "Group": "not satisfied"}
{"Chain": "WLTCSLVFNVFW", "Group": "not satisfied"}
{"Chain": "LTACRYVCFLLF", "Group": "not satisfied"}
{"Chain": "ADMPPEFKPALS", "Group": "not satisfied"}
{"Chain": "SSSWILCRFGRS", "Group": "not satisfied"}
{"Chain": "VVFFSSPHFVRA", "Group": "not satisfied"}
{"Chain": "LMVLISVMFSLG", "Group": "not satisfied"}
{"Chain": "AQDSFGFPPPPS", "Group": "satisfied"}
{"Chain": "FPLYKQKSGITY", "Group": "not satisfied"}
{"Chain": "GNLFIGLLHITC", "Group": "not satisfied"}
{"Chain": "LVKLGSTLSGVG", "Group": "not satisfied"}
{"Chain": "ERVMMKNDSIVT", "Group": "not satisfied"}
{"Chain": "RKSTVILLLTDT", "Group": "not satisfied"}
{"Chain": "RRWGGCPGVRGC", "Group": "not satisfied"}
{"Chain": "TVERKMYWQRWG", "Group": "not satisfied"}
{"Chain": "VEVCLLRRWFGL", "Group": "not satisfied"}
{"Chain": "LPSLPPRTSPPS", "Group": "satisfied"}
{"Chain": "PLLRLVPVPSVI", "Group": "not satisfied"}
{"Chain": "TKKKPGEPGKRK", "Group": "not satisfied"}
{"Chain": "LPLRAHPTISFP", "Group": "satisfied"}
{"Chain": "RAAREASQDIPN", "Group": "satisfied"}
{"Chain": "LKYETGTILRMT", "Group": "not satisfied"}
{"Chain": "KRRKKKKQSGGK", "Group": "not satisfied"}
{"Chain": "LLPSPRSSPPPS", "Group": "not satisfied"}
{"Chain": "CVWFGVGRCCGR", "Group": "not satisfied"}
{"Chain": "GSVGQNLCPGSI", "Group": "not satisfied"}
{"Chain": "VAALLCWLHLYA", "Group": "not satisfied"}
{"Chain": "PPPPRSPPLPRL", "Group": "satisfied"}
{"Chain": "NKNRKNQNKGKR", "Group": "satisfied"}
{"Chain": "NTTQKKKGGRKA", "Group": "satisfied"}
{"Chain": "PPPAPPCFAPFP", "Group": "not satisfied"}
{"Chain": "CLWGQWAVGCMG", "Group": "not satisfied"}
{"Chain": "VVCFVVCGFYLG", "Group": "not satisfied"}
{"Chain": "IDVIIESVFSLF", "Group": "not satisfied"}
{"Chain": "GYNCKWGRTNVT", "Group": "not satisfied"}
{"Chain": "VGARAIITIEFG", "Group": "not satisfied"}
